Below, each of the binders is paired with its reported kon value.
molecular target: T1, biotinylated native human ApoC3 (human, UniProt P02656 21-99, biotinylated (site not stated)); assay: SPR, IgG1 over biotinylated ApoC3 on SA chip, pH 7.4
T1 construct: also called biotinylated human ApoC3
T1 sequence (P02656 21-99): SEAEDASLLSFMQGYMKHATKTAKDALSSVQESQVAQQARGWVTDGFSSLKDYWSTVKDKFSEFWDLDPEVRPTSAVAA

binder | result-unit | kon
mAb3 (antibody, IgG1, V domains shown, Produced as full length IgG1 (kappa) in ExpiCHO-S cells; also called humanized anti-ApoC3 antibody mAb3) VH: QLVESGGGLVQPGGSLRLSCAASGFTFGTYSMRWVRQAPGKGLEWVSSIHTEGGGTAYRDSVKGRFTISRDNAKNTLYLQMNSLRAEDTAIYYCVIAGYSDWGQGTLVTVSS VL: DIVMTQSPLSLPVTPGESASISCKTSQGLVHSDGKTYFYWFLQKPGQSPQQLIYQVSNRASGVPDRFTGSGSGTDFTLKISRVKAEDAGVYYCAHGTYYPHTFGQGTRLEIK | M⁻¹ s⁻¹ | 212000
mAb7 (antibody, V domains shown, Produced as full length IgG1 (kappa) in ExpiCHO-S cells; also called humanized anti-ApoC3 antibody mAb7) VH: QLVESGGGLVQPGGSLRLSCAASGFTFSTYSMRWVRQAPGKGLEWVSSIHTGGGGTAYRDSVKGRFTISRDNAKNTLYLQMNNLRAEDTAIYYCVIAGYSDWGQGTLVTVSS VL: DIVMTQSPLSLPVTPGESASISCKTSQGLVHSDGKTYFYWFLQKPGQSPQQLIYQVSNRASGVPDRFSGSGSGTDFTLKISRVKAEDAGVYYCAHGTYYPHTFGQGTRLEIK | M⁻¹ s⁻¹ | 364000
mAb17 (antibody, IgG1, V domains shown, Produced as full length IgG1 (kappa) in ExpiCHO-S cells; also called humanized anti-ApoC3 antibody mAb17) VH: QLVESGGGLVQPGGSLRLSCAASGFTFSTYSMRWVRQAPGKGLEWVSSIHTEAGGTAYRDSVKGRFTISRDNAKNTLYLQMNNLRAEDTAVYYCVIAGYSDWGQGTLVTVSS VL: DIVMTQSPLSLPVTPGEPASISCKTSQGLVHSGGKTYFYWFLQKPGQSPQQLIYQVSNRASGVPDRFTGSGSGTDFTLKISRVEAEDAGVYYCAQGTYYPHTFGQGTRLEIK | M⁻¹ s⁻¹ | 503000
mAb1 (antibody, IgG1, V domains shown, Produced as full length IgG1 (kappa) in ExpiCHO-S cells; also called humanized anti-ApoC3 antibody mAb1) VH: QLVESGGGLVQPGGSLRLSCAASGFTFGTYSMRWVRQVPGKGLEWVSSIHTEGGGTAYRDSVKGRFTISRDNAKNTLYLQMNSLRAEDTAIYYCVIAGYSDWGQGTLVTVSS VL: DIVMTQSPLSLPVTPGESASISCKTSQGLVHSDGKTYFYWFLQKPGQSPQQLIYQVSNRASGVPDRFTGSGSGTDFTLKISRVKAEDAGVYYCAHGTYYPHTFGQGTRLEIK | M⁻¹ s⁻¹ | 261000
mAb5 (antibody, IgG1, V domains shown, Produced as full length IgG1 (kappa) in ExpiCHO-S cells; also called humanized anti-ApoC3 antibody mAb5) VH: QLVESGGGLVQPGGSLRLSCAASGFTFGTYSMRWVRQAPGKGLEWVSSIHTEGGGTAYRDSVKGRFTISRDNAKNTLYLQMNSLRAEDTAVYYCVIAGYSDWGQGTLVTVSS VL: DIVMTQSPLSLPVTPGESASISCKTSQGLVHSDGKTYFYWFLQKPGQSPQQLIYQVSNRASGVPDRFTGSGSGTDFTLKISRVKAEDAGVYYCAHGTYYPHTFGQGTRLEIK | M⁻¹ s⁻¹ | 237000
mAb16 (antibody, IgG1, V domains shown, Produced as full length IgG1 (kappa) in ExpiCHO-S cells; also called humanized anti-ApoC3 antibody mAb16) VH: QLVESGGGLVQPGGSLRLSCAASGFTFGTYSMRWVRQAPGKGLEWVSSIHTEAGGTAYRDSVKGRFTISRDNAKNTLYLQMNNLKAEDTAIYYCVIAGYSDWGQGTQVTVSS VL: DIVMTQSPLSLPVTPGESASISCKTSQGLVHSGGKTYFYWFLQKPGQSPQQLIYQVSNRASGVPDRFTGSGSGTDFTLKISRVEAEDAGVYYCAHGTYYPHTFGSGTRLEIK | M⁻¹ s⁻¹ | 546000
mAb14 (antibody, IgG1, V domains shown, Produced as full length IgG1 (kappa) in ExpiCHO-S cells; CDR graft into the closest human germline frameworks; also called humanized anti-ApoC3 antibody mAb14; variant 14) VH: QLLESGGGLVQPGGSLRLSCAASGFTFGTYSMRWVRQVPGKGLEWVSSIHTEGGGTAYRDSVKGRFTISRDNSKNTLYLQMNSLRAEDTAVYYCVIAGYSDWGQGTLVTVSS VL: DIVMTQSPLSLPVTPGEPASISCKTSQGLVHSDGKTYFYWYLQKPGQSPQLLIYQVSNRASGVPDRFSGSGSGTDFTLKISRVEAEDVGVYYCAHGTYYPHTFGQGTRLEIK | M⁻¹ s⁻¹ | 144000
